Values compiled from patent US7015306B2.

- Test: In vitro serum stability assay (HPLC) of In-111 labeled peptide
- Format: in vitro ADME, human
- Test settings: human serum, 37EC, 4 hours
*1 amine or outer side, *2 acyl side, *3 side chain or, on linkers, in order; H or OH if unused. Where a SMILES comes first, the peptide text is derived from it. [ ]: non-standard residue; d: D form. The star is where a group is joined. ξ: configuration not given here. Abu(1-amidino-4-piperidyl) = N=C(N)N1CCC(CC[C@H](N)C(=O)O)CC1; Gly(1-amidinopiperidin-4-yl) = N=C(N)N1CCC([C@H](N)C(=O)O)CC1; DTPA = O=C(O)CN(CCN(CC(=O)O)CC(=O)O)CCN(CC(=O)O)CC(=O)*; ξGly(4-Pip(1-amidino)) = N=C(N)N1CCC(C(N)C(=O)O)CC1; X3 = CC[C@H](C)[C@@H](COC(=O)[*:2])N[*:1]; Pro(4-oxo) = O=C1CN[C@H](C(=O)O)C1; Tle = CC(C)(C)[C@H](N)C(=O)O
Reported metric: % of peptide at 4 hours after incubation at 37EC, Serum (%)

{"columns": ["Compound", "Readout value"],
 "data": [
  ["CC(C)C[C@H](NC(=O)[C@@H](NC(=O)[C@H](Cc1ccc(O)cc1)NC(=O)[C@@H]1CCCN1C(=O)[C@H](CCCNC(=N)N)NC(=O)[C@H](CCC1CCN(C(=N)N)CC1)NC(=O)[C@@H]1CCCN1C(=O)[C@@H](CCCCN)NC(=O)CN(CCN(CCN(CC(=O)O)CC(=O)O)CC(=O)O)CC(=O)O)C(C)(C)C)C(=O)O ({DTPA}-[dK]P[Abu(1-amidino-4-piperidyl)]RPY[Tle]L-OH)", 84.3],
  ["CC[C@H](C)[C@@H](COC(=O)N[C@@H](CC(C)C)C(=O)O)NC(=O)[C@H](Cc1ccc(O)cc1)NC(=O)[C@@H]1CCCN1C(=O)[C@H](CCCNC(=N)N)NC(=O)[C@@H](NC(=O)[C@@H]1CCCN1C(=O)[C@@H](CCCCN)NC(=O)CN(CCN(CCN(CC(=O)O)CC(=O)O)CC(=O)O)CC(=O)O)C1CCN(C(=N)N)CC1 ({DTPA}-[dK]P[Gly(1-amidinopiperidin-4-yl)]RPY[X3]L-OH)", 94.6],
  ["CC(C)C[C@H](NC(=O)[C@@H](NC(=O)[C@H](Cc1ccc(O)cc1)NC(=O)[C@@H]1CC(=O)CN1C(=O)[C@H](CCCNC(=N)N)NC(=O)C(NC(=O)[C@@H]1CCCN1C(=O)[C@@H](CCCCN)NC(=O)CN(CCN(CCN(CC(=O)O)CC(=O)O)CC(=O)O)CC(=O)O)C1CCN(C(=N)N)CC1)C(C)(C)C)C(=O)O (stereo partly drawn) ({DTPA}-[dK]P[ξGly(4-Pip(1-amidino))]R[Pro(4-oxo)]Y[Tle]L-OH)", 78.5]
]}

----------
- Test: In vitro urine stability assay (HPLC) of In-111 labeled peptide
- Type: in vitro ADME
- Test settings: rat urine, 37EC, 4 hours
Where a SMILES comes first, the peptide text is derived from it. [ ]: non-standard residue; d: D form. The star is where a group is joined. ξ: configuration not given here. DTPA = O=C(O)CN(CCN(CC(=O)O)CC(=O)O)CCN(CC(=O)O)CC(=O)*; ξGly(4-Pip(1-amidino)) = N=C(N)N1CCC(C(N)C(=O)O)CC1; ξGly(piperidin-4-yl) = NC(C(=O)O)C1CCNCC1; Pro(4-oxo) = O=C1CN[C@H](C(=O)O)C1; Tle = CC(C)(C)[C@H](N)C(=O)O
Reported metric: % of peptide at 4 hours after incubation at 37EC, Urine (%)

{"columns": ["Molecule", "Readout value"],
 "data": [
  ["CC(C)C[C@H](NC(=O)[C@@H](NC(=O)[C@H](Cc1ccc(O)cc1)NC(=O)[C@@H]1CC(=O)CN1C(=O)[C@H](CCCNC(=N)N)NC(=O)C(NC(=O)[C@@H]1CCCN1C(=O)[C@@H](CCCCN)NC(=O)CN(CCN(CCN(CC(=O)O)CC(=O)O)CC(=O)O)CC(=O)O)C1CCN(C(=N)N)CC1)C(C)(C)C)C(=O)O (stereo partly drawn) ({DTPA}-[dK]P[ξGly(4-Pip(1-amidino))]R[Pro(4-oxo)]Y[Tle]L-OH)", 79.7],
  ["CC(C)C[C@H](NC(=O)[C@@H](NC(=O)[C@H](Cc1ccc(O)cc1)NC(=O)[C@@H]1CCCN1C(=O)C(NC(=O)C(NC(=O)[C@@H]1CCCN1C(=O)[C@@H](CCCCN)NC(=O)CN(CCN(CCN(CC(=O)O)CC(=O)O)CC(=O)O)CC(=O)O)C1CCN(C(=N)N)CC1)C1CCNCC1)C(C)(C)C)C(=O)O (stereo partly drawn) ({DTPA}-[dK]P[ξGly(4-Pip(1-amidino))][ξGly(piperidin-4-yl)]PY[Tle]L-OH)", 79.7],
  ["CC[C@H](C)[C@H](NC(=O)[C@H](Cc1ccc(O)cc1)NC(=O)[C@@H]1CCCN1C(=O)[C@H](CCCNC(=N)N)NC(=O)C(Cc1ccc(NC(=N)N)cc1)NC(=O)[C@@H]1CCCN1C(=O)[C@@H](CCCCN)NC(=O)CN(CCN(CCN(CC(=O)O)CC(=O)O)CC(=O)O)CC(=O)O)C(=O)N[C@@H](CC(C)C)C(=O)O (stereo partly drawn) [Compound I]", 1.5]
]}
